- Target: unphosphorylated VEGF-R2Δ50 (FLVK) (Homo sapiens, UniProt P35968, DEL940-989/E990V)
- Construct: VEGF-R2Δ50 contains residues 806-939 and 990-1171; made in house; host or cells: baculovirus/insect cell system
- Sequence (P35968 with tags, fused parts or gaps DEL940-989/E990V limits assumed): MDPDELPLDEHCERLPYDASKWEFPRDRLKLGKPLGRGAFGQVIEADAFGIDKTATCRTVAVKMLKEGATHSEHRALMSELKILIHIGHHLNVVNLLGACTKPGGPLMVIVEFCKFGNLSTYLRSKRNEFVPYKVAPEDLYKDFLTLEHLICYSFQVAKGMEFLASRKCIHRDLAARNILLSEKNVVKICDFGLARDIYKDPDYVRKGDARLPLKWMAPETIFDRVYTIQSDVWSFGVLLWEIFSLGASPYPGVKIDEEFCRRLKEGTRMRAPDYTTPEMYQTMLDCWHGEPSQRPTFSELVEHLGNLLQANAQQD
- Assay: VEGF-R2 coupled spectrophotometric assay, unphosphorylated construct (FLVK)
- Format: biochemical
- Run Parameters: percent inhibition at 50 nM
Measured Endpoint: inhibition at 0.05 µM (%)
Write down the numeric answer in % and omit the unit.

# input Which inhibition at 0.05 µM value is on record for "COC[C@H]1CCCN1C(=O)c1cc2nccc(Oc3ccc4[nH]c(C)c(C(=O)NC5CC5)c4c3)c2s1" ?
# output 10

# input For the compound shown here, "C#CCNC(=O)n1c(C)c(Cl)c2c(F)c(Oc3ccnc4cc(C(=O)N5CC[C@H](O)C5)sc34)ccc21" , give the reported inhibition at 0.05 µM.
# output 99

# input Need inhibition at 0.05 µM of "CNC(=O)n1c(C)cc2cc(Oc3ccnc4cc(C(=O)N5CCC[C@H]5COC)sc34)ccc21" , thanks.
# output 96

# input Fill blank: measured inhibition at 0.05 µM of the compound "C#CCNC(=O)n1c(C)cc2cc(Oc3ccnc4cc(C(=O)N5CCC[C@H]5COC)sc34)ccc21" is ____.
# output 96

# input Dear colleague, I am looking for the recorded inhibition at 0.05 µM of the following compound: "CO[C@H]1CCN(C(=O)c2cc3nccc(Oc4ccc5c(c4)cc(C)n5C(=O)NCCCO)c3s2)C1"
# output 97

# input Item "CNC(=O)n1c(C)cc2cc(Oc3ccnc4cc(C(=O)N5CCC[C@@H]5COC)sc34)ccc21" has what recorded inhibition at 0.05 µM?
# output 96

# input Returns the measured inhibition at 0.05 µM for the input compound. Input: "C#CCNC(=O)n1c(C)cc2cc(Oc3ccnc4cc(C(=O)N5C[C@H](OC)[C@@H](OC)C5)sc34)ccc21"
# output 98

* * *

- Target: PDGFRβ (Homo sapiens)
- Sequence (P09619 33-1106): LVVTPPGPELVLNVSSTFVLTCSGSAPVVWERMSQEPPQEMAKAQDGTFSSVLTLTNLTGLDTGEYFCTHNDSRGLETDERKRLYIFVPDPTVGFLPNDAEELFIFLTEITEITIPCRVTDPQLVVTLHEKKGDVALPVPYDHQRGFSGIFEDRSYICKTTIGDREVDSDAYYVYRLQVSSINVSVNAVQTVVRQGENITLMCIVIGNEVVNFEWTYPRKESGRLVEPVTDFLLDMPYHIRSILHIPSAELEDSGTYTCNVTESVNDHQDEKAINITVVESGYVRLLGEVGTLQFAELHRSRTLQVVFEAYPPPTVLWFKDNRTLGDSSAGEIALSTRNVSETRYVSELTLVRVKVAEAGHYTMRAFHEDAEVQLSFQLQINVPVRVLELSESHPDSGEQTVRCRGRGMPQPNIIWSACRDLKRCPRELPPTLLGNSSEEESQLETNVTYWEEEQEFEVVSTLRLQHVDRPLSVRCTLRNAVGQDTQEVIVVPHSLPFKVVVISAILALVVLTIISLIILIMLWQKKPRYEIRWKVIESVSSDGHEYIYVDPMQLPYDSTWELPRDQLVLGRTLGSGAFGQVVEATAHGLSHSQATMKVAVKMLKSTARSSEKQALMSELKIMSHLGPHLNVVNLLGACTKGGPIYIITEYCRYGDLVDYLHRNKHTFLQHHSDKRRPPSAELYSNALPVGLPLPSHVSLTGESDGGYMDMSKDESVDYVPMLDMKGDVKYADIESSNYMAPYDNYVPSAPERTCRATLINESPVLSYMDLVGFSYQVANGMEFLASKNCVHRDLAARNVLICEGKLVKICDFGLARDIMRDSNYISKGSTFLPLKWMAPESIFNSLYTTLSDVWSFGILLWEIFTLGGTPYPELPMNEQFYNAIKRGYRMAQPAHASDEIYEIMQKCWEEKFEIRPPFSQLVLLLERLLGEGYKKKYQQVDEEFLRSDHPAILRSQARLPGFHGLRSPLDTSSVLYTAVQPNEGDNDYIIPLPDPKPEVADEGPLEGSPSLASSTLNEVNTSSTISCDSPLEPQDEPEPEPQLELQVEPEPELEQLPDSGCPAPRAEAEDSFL
- Assay: PAE-PDGFRβ phosphorylation in PAE-PDGFRB cells assay
- Run Parameters: PAE cells overexpressing human PDGFRβ, PDGF-BB stimulated; read-out: PAE PDGFR autophos IC50
Could you please report measured pIC50 for the items listed next?
FYI, pIC50 means -log10 of a concentration in mol per litre.

# input What pIC50 appears in the records for this compound with PDGFRβ (Homo sapiens)? "C#CCNC(=O)n1c(C)cc2cc(Oc3ccnc4cc(C(=O)N5CC[C@@H](OC)C5)sc34)ccc21"
# output 7.82

# input Any idea what pIC50 came out for "C#CCNC(=O)n1c(C)cc2cc(Nc3ccnc4cc(C(=O)N5CC[C@@H](OC)C5)sc34)ccc21" on PDGFRβ (Homo sapiens)?
# output 7.25

# input // map "Cc1cc2cc(Oc3ccnc4cc(C(=O)N5CC[C@@H](N(C)C)C5)sc34)ccc2n1C(=O)NCCO" to recorded pIC50 (system: PDGFRβ (Homo sapiens))
# output 7.73

# input Hi! What's the reported pIC50 for "CNC(=O)n1c(C)cc2cc(Oc3ccnc4cc(C(=O)N5CCC[C@H]5COC)sc34)ccc21" on PDGFRβ (Homo sapiens)?
# output 7.78

* * *

- Assay: Human liver microsome (HLM) assay
- Assay type: in vitro ADME
- Run Parameters: human liver microsomes, UDPGA
Measured Endpoint: % remain (HLM-UDPGA, 0.5 h) (%)
Report the value in % with no unit label.

# input Looking for the measured % remain (HLM-UDPGA, 0.5 h) of "CNC(=O)n1c(C)cc2cc(Nc3ccnc4cc(C(=O)N5CCC[C@H]5CO)sc34)ccc21" , can you help?
# output 104.8

# input Looking for the measured % remain (HLM-UDPGA, 0.5 h) of "Cc1cc2cc(Nc3ccnc4cc(C(=O)N5CCC[C@H]5CO)sc34)ccc2n1C(=O)NC(C)C" , can you help?
# output 113.4

# input Return reported % remain (HLM-UDPGA, 0.5 h); argument: "CNC(=O)n1c(C)cc2cc(Nc3ccnc4cc(-c5nccn5C)sc34)ccc21"
# output 101.8

# input Data request, read-out % remain (HLM-UDPGA, 0.5 h), for "Cc1cc2cc(Nc3ccnc4cc(-c5nccn5C)sc34)ccc2n1C(=O)NC(C)C"
# output 119.4

* * *

- Target: KDR (VEGFR2) (Homo sapiens, UniProt P35968)
- Sequence (P35968 20-1356): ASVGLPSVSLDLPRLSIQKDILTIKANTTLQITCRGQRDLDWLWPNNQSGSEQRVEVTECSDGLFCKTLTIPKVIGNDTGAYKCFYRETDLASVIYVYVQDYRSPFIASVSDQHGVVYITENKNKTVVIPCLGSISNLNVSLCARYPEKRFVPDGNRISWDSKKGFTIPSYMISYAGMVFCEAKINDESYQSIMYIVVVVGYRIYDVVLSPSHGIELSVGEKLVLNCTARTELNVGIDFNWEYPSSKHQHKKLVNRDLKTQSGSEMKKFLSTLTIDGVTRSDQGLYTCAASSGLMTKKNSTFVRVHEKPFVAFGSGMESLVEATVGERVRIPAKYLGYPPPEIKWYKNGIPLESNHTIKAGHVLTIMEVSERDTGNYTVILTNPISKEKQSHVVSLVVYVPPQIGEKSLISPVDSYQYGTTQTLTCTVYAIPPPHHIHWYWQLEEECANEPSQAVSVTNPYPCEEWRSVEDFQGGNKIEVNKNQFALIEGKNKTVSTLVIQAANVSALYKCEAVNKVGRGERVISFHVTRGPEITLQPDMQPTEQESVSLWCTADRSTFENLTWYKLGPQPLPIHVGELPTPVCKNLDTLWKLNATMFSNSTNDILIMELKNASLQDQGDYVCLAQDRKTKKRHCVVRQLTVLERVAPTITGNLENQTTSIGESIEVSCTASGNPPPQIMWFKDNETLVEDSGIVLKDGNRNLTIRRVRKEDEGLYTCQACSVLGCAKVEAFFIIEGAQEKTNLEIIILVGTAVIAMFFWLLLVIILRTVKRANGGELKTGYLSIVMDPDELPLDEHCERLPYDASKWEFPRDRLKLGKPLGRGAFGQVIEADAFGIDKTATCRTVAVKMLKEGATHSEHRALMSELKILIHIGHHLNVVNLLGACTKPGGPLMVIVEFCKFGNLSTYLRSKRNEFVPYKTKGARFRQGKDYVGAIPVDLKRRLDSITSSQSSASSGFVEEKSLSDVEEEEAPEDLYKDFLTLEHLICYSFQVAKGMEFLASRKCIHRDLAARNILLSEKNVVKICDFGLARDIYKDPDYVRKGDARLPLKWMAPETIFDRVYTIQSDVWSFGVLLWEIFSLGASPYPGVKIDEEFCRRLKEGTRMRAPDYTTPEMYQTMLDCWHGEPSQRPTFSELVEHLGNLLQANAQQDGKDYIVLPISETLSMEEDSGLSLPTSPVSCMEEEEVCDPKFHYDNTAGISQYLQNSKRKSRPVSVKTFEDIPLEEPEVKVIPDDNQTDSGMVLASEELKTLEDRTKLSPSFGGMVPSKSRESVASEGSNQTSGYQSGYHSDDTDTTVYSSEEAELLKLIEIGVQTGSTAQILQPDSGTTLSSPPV
- Assay: KDR (VEGFR2) phosphorylation in PAE-KDR cells assay
- Run Parameters: PAE cells overexpressing human KDR, VEGF stimulated; read-out: PAE KDR autophos IC50
Measured Endpoint: pIC50
Please report pIC50 as the negative decimal logarithm of the molar concentration, giving only the number.

# input Report pIC50 for Cc1cc2cc(Oc3ccnc4cc(C(=O)N5CC[C@H](O)C5)sc34)ccc2n1C(=O)NCCO [Example 9k] please.
# output 9.00

# input # lookup: pIC50 of CNC(=O)n1c(C)c(Cl)c2c(F)c(Oc3ccnc4cc(C(=O)N5CC[C@H](OC)C5)sc34)ccc21 [Example 6b]
# output 9.02

# input Requested read-out: pIC50. Entry: CNC(=O)n1c(C)cc2cc(Nc3cccc4cc(C(=O)N5C[C@H](OC)C[C@H]5CO)sc34)ccc21 [Example 3f]
# output 8.73

# input Recorded pIC50 of COC[C@@H]1CCCN1C(=O)c1cc2nccc(Oc3ccc4c(cc(C)n4C(=O)NC4CC4)c3F)c2s1 [Example 5b] , please.
# output 9.30

# input compound: CCCNC(=O)n1c(C)cc2cc(Oc3ccnc4cc(C(=O)N5CC[C@H](OC)C5)sc34)ccc21 [Example 9d] ; wanted: its pIC50
# output 8.83

# input I'd like to know its pIC50. The compound in question is CCNC(=O)n1c(C)cc2cc(Oc3ccnc4cc(C(=O)N5CC[C@H](OC)C5)sc34)ccc21 [Example 9e]
# output 9.62

# input Need pIC50, item C#CCNC(=O)n1c(C)cc2cc(Nc3ccnc4cc(C(=O)N5CC[C@@H](O)C5)sc34)ccc21 [Example 1o]
# output 8.80

# input // lookup pIC50 for C#CCNC(=O)n1c(C)cc2cc(Oc3ccnc4cc(C(=O)N5CC[C@H](OC)C5)sc34)ccc21 [Example 4f]
# output 9.83

# input Name the reported pIC50 value associated with the compound CO[C@@H]1CCN(C(=O)c2cc3nccc(Oc4ccc5c(c4)cc(C)n5C(=O)NC4CC4)c3s2)C1 [Example 4k]
# output 9.24

# input What pIC50 value was documented for this compound, CO[C@@H]1C[C@@H](CO)N(C(=O)c2cc3cccc(Nc4ccc5c(c4)cc(C)n5C(=O)NC4CC4)c3s2)C1 [Example 3g] ?
# output 8.59

# input Param item = C#CCNC(=O)n1c(C)cc2c(F)c(Oc3ccnc4cc(C(=O)N5CC[C@@H](O)C5)sc34)ccc21 [Example 5p] ; retrieve measured pIC50.
# output 9.46

# input Given the entry CNC(=O)n1c(C)cc2c(F)c(Oc3ccnc4cc(-c5nc(C(C)(C)O)cs5)sc34)ccc21 [Example 3k] , report its measured pIC50.
# output 9.52

# input Name the reported pIC50 value associated with the compound CNC(=O)n1c(C)cc2c(F)c(Oc3ccnc4cc(C(=O)N5CC[C@H](OC)C5)sc34)ccc21 [Example 5f]
# output 9.75

# input Find the recorded pIC50 belonging to CO[C@H]1CCN(C(=O)c2cc3nccc(Oc4ccc5c(c4F)c(Cl)c(C)n5C(=O)NC4CC4)c3s2)C1 [Example 6c] and report it.
# output 8.90

# input Can you look up the measured pIC50 of C#CCNC(=O)n1c(C)cc2cc(Nc3ccnc4cc(C(=O)N5CCC[C@@H]5COC)sc34)ccc21 [Example 7d] for me?
# output 9.59

* * *

- Assay: Mouse PK assay
- Format: in vivo, B6 female mice
- Run Parameters: female, B6, mouse, plasma, po, 50 mg/kg
Field: AUC. Provide a value for each of the molecules that follow.
Form entry: value (ng·h/mL) — number only.

# input So what does the record say about AUC for COC[C@@H]1CCCN1C(=O)c1cc2nccc(Nc3ccc4c(c3)cc(C)n4C(=O)NC3CC3)c2s1 [Example 2c] ?
# output 6700

# input Recorded AUC of CNC(=O)n1c(C)cc2cc(Oc3ccnc4cc(C(=O)N5CC[C@H](OC)C5)sc34)ccc21 [Example 4g] , please.
# output 3620

# input molecule: C#CCNC(=O)n1c(C)cc2cc(Oc3ccnc4cc(C(=O)N5CC[C@H](OC)C5)sc34)ccc21 [Example 4f] ; wanted: its AUC
# output 15600

# input I am curious: what AUC value has been reported for CO[C@H]1CCN(C(=O)c2cc3nccc(Oc4ccc5c(c4)cc(C)n5C(=O)NC4CC4)c3s2)C1 [Example 4h] ?
# output 2600

# input # lookup: AUC of C#CCNC(=O)n1c(C)cc2c(F)c(Oc3ccnc4cc(C(=O)N5CCC[C@H]5CO)sc34)ccc21 [Example 5e]
# output 1960

# input Which measured AUC value corresponds to C#CCNC(=O)n1c(C)cc2cc(Nc3ccnc4cc(C(=O)N5CC[C@@H](O)C5)sc34)ccc21 [Example 1o] ?
# output 219

# input Name the recorded AUC for CNC(=O)n1c(C)cc2cc(Nc3ccnc4cc(C(=O)N5CC[C@@H](OC)C5)sc34)ccc21 [Example 1l] .
# output 719

The values you see were collected from patent US6833456B2.
